Catalogue of MIC readings, one per entry.
System: EcR1: Penicillinase-Producing Escherichia coli without Associated Resistance
assay_text: Antibiogram, MIC by the VITEK 2 system
Assay type: cell-based
test_context: Escherichia coli; EcR1, Table A2; read-out: MIC mg/L (diameter in mm)

Illustrative cases are given below, each with its answer.
get_value(item= `CCN[C@@H]1C[C@H](N)[C@@H](O[C@H]2OC(CN)=CC[C@H]2N)[C@H](O)[C@H]1O[C@H]1OC[C@](C)(O)[C@H](NC)[C@H]1O` , readout=MIC) returns ≤ 1 mg/L

get_value(item= `CCn1cc(C(=O)O)c(=O)c2cc(F)c(N3CCNCC3)cc21` , readout=MIC) returns ≤ 0.5 mg/L

get_value(item= `CC(=O)OCC1=C(C(=O)O)N2C(=O)[C@@H](NC(=O)Cc3cccs3)[C@H]2SC1` , readout=MIC) returns 4 mg/L

get_value(item= `C[C@@H](O)[C@H]1C(=O)N2C(C(=O)O)=C(SCCN=CN)C[C@H]12` , readout=MIC) returns ≤ 0.5 mg/L

get_value(item= CC1COc2c(N3CCN(C)CC3)c(F)cc3c(=O)c(C(=O)O)cn1c23 (centres unmarked) , readout=MIC) returns ≤ 0.25 mg/L

---
get_value(item= `O=C1CN(/N=C/c2ccc([N+](=O)[O-])o2)C(=O)N1` , readout=MIC) returns ≤ 16 mg/L

get_value(item= `NC[C@H]1O[C@H](O[C@H]2[C@H](O)[C@@H](O[C@H]3O[C@H](CO)[C@@H](O)[C@H](N)[C@H]3O)[C@H](N)C[C@@H]2N)[C@H](N)C[C@@H]1O` , readout=MIC) returns ≤ 1 mg/L

get_value(item= `CCN1CCN(C(=O)N[C@@H](C(=O)N[C@@H]2C(=O)N3[C@@H]2SC(C)(C)[C@@H]3C(=O)O)c2ccccc2)C(=O)C1=O` , readout=MIC) returns ≤ 8 mg/L

Data provenance: patent US20140066365A1
